// read-out IC50, gathered for Receptor-interacting serine/threonine-protein kinase 1 (Homo sapiens) from published studies

MOLECULE | IC50
CC(C)C(=O)Nc1nc2cc(-c3ccc4c(c3)c(C(=O)N[C@H](C)c3cccc(F)c3)cn4C)ccn2n1 | ≥ 1000 nM
COc1ccc(N2CCC(C(=O)N3N=CC[C@H]3c3ccccc3)CC2)nn1 | 1 to 31.6 nM
O=C(Nc1ccccc1F)c1n[nH]c(Cc2ccccc2)n1 | 521 nM
CN1CCN(C(C)(C)C#Cc2ccc3c(c2)N(C)C(=O)[C@@H](NC(=O)c2cc(Oc4ccccc4)ccn2)CC3)CC1 | 12.7 nM
Cc1ccc(-n2nc(C(=O)NC3CCc4ccccc4NC3=O)c(=O)cc2C)cc1F (centres unmarked) | 37 nM
C[C@H](NC(=O)c1c[nH]c2ncc(-c3ccnn3C3CCCCO3)cc12)c1cccc(F)c1 (some centres unmarked) | ≥ 1000 nM
C[C@H](NC(=O)c1c[nH]c2ccc(-c3ccc4nc(NC(=O)C(C)(C)C)sc4c3)cc12)c1cccc(F)c1 | 10 to 100 nM
Cn1cc(C(=O)N2CCC[C@H]2c2cccc(Cl)c2)c2cc(-c3ccn4nc(NC(=O)C5CC5)nc4c3)ccc21 | 10 to 100 nM
C[C@H](NC(=O)c1cn(C)c2ccc(-c3ccc4c(NC(=O)C5CC5)n[nH]c4c3)cc12)c1cccc(F)c1 | < 1 nM
C[C@H](NC(=O)c1c[nH]c2ncc(-c3ccc(N4CCOCC4)nc3)cc12)c1cccc(F)c1 | 100 to 1000 nM
C[C@H](NC(=O)c1cn(C)c2ccc(-c3ccn4nc(NC(=O)C(C)(C)CCl)nc4c3)cc12)c1cccc(F)c1 | ≥ 1000 nM
